Tested on: 945468-187-T-J3-PDC spheroids with HUVEC/MSC, viability;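 further: spheroids exposed to agents for 7 days before viability read; 100% = DMSO vehicle control viability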
Test: Anticancer human tumor 945468-187-T-J3-PDC patient-derived rectal carcinoma cell line growth inhibition [PI3K]
Conditions: second compound 0.0316 µM; first compound 10 µM; hits give low values
Description: Combinatorial screen of targeted agents with the PI3K inhibitors inavolisib, alpelisib, duvelisib, and copanlisib in multi-cell type tumor spheroids A high-throughput screen of multi-cell type tumor spheroids was designed to identify active combinations of targeted small molecules and PI3K pathway inhibitors. […] Compounds. […] If the clinical Cmax for an agent had not been determined, the highest concentration tested was 10 microM. […]
# key: entry, value: viability, T/C

For reference, reported viability, T/C for CC(C)NCC(C(=O)N1CCN(c2ncnc3c2C(C)CC3O)CC1)c1ccc(Cl)cc1 (stereo not given) + Cc1nc(NC(=O)N2CCCC2C(N)=O)sc1-c1ccnc(C(C)(C)C(F)(F)F)c1 stands at 55%

# viability, T/C (compound: CNC(=O)c1ccc(N2C(=S)N(c3ccc(C#N)c(C(F)(F)F)c3)C(=O)C2(C)C)cc1F + CC(Nc1ncnc2nc[nH]c12)c1cc2cccc(Cl)c2c(=O)n1-c1ccccc1 ) is 100%

Just so you know, measured viability, T/C for CNC(=O)c1ccc(N2C(=S)N(c3ccc(C#N)c(C(F)(F)F)c3)C(=O)C2(C)C)cc1F + CC(Nc1ccc2c(c1)OCCn1cc(N3C(=O)OCC3C(F)F)nc1-2)C(N)=O came out at 111%

According to the records, this compound Cn1nccc1Nc1nccc(-c2ccn(C(CO)c3ccc(Cl)c(F)c3)c(=O)c2)n1 (stereo not given) + CC(Nc1ncnc2nc[nH]c12)c1cc2cccc(Cl)c2c(=O)n1-c1ccccc1 displays viability, T/C of 132%

Notebook: CNC(=O)c1ccc(N2C(=S)N(c3ccc(C#N)c(C(F)(F)F)c3)C(=O)C2(C)C)cc1F + COc1c(OCCCN2CCOCC2)ccc2c3n(c(=NC(=O)c4cnc(N)nc4)nc12)CCN3 , viability, T/C read as 98%
